System: KMS11
Experiment: Cell proliferation inhibition, MTT assay, KMS11
Assay type: cell-based
Settings: Homo sapiens, KMS-11, 72 h, KMS11 multiple myeloma cells, 3-day proliferation
pIC50: −log10 of the molar value.
Give pIC50 for every item shown.

Here is how some compounds turned out for pIC50.
COc1ccc(OCC(=O)CNc2cc[nH]c(=O)c2-c2nc3cc4c(cc3[nH]2)C(=O)N(C2CCN(C)CC2)C4)c(Cl)c1 [drawing 843]
5.30 to 6.00
Cc1ccc(OCC(=O)CNc2cc[nH]c(=O)c2-c2nc3cc4c(cc3[nH]2)CN(C2CCN(C)CC2)C4=O)c(C)c1 [drawing 838]
5.30 to 6.00
CN1CCC(N2Cc3cc4[nH]c(-c5c(NCC(=O)COc6ccccc6Br)cc[nH]c5=O)nc4cc3C2=O)CC1 [drawing 841]
5.30 to 6.00
Cc1ccc(OCC(=O)CNc2cc[nH]c(=O)c2-c2nc3cc4c(cc3[nH]2)CN(CCCN2CCCC2)C4=O)c(C)c1 [drawing 840]
4.70 to 5.30

Next item in the queue.
Task: Would you kindly share the measured pIC50 for CCc1cc2c(cc1OCC(=O)CNc1cc[nH]c(=O)c1-c1nc3cc4c(cc3[nH]1)C(=O)N(C1CCN(C)CC1)C4)OCO2 [drawing 842] ?
Result: 5.30 to 6.00

* * *

Quick record of pIC50 values for Jak2 (Homo sapiens, UniProt O60674).
pIC50: −log10 of the molar value.

CN1CCC(N2C(=O)c3cc4nc(-c5c(NC[C@@H](O)COc6cccc(N7CCOCC7)c6)ccnc5O)[nH]c4cc3C2=O)CC1
5.30 to 6.30
CN1CCC(N2C(=O)c3cc4nc(-c5c(NC[C@@H](O)Cn6cnc7ccccc76)ccnc5O)[nH]c4cc3C2=O)CC1
5.30 to 6.30
COCCN1C(=O)c2cc3nc(-c4c(NC[C@@H](O)c5cccc(Cl)c5)cc[nH]c4=O)[nH]c3cc2C1=O
< 4.82
Cc1ccc(OC[C@H](O)CNc2cc[nH]c(=O)c2-c2nc3c(C)c4c(cc3[nH]2)CN(C2CCN(C)CC2)C4=O)c(C)c1
> 6.30

Each of the following entries comes with a recorded value; kindly state pIC50 for each.
1. COc1cc(F)ccc1OC[C@@H](O)CNc1ccnc(O)c1-c1nc2cc3c(cc2[nH]1)C(=O)N(C1CCN(C)CC1)C3=O
2. Cc1c2c(cc3[nH]c(-c4c(NC[C@@H](O)COc5c(F)ccc(Cl)c5F)cc[nH]c4=O)nc13)C(=O)N(C1CCN(C)CC1)C2=O

Result:
["4.82 to 5.30", "5.30 to 6.30"]

* * *

Target: InsR (Homo sapiens)
Sequence (P06213 1023-1298 limits assumed, species assumed): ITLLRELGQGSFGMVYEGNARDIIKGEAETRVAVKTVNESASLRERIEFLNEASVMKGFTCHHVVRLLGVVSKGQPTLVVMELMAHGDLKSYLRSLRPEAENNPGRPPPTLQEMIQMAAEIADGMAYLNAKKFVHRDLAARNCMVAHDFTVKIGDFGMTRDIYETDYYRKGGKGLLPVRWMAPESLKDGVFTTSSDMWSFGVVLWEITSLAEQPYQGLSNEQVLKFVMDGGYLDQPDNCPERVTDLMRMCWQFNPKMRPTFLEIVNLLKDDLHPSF
Give IC50 for every item shown.

Here is how some compounds turned out for IC50.
CN1CCC(N2Cc3cc4nc(-c5c(NC[C@@H](O)COc6c(F)ccc(Cl)c6F)cc[nH]c5=O)[nH]c4cc3C2=O)CC1
< 0.5 µM
CN1CCC(N2C(=O)c3cc4nc(-c5c(NCC(O)c6ccncc6)cc[nH]c5=O)[nH]c4cc3C2=O)CC1 (centres unmarked)
5 to 15 µM
Cc1ccc(OC[C@H](O)CNc2cc[nH]c(=O)c2-c2nc3cc4c(cc3[nH]2)C(=O)N(C2CCN(C)CC2)C4=O)c(C(C)(C)C)c1
5 to 15 µM

Each of the following entries comes with a recorded value; kindly state IC50 for each.
1. Cc1ccc(OCC(O)CNc2ccnc(O)c2-c2nc3cc4c(cc3[nH]2)C(=O)N(CC(C)(C)CN(C)C)C4=O)c(C)c1 (centres unmarked)
2. Cc1ccc(OC[C@H](O)CNc2ccnc(O)c2-c2nc3cc4c(cc3[nH]2)C(=O)N(C2CCN(C)CC2)C4=O)c(C)n1

Result:
1. 0.5 to 5 µM
2. 0.5 to 5 µM

Source listed as patent US8063225B2.
